biological target: KV7.1/KCNE1 (Homo sapiens, UniProt P51787); test: Automated patch-clamp (APC, population patch), CHO cells stably expressing human KV7.1/KCNE1; assay type: cell-based; settings: * Greatest efficacy achieved with a concentration between 10 and 30 µM (no fit)
Measured KV7.1/KCNE1 channel Efficacy (max reduction in Gmax) Gmin, marked * values are reported for all entries that follow.
Observation type: KV7.1/KCNE1 channel Efficacy (max reduction in Gmax) Gmin, marked *

Molecule	Assayed system	Value reported
COC(=O)[C@@H](NC(=O)c1cn(CCCCF)c2ccccc12)C(C)(C)C [4F-MDMB-BUTICA]	KV7.1/KCNE1 (Homo sapiens, UniProt P51787)	0.87
C=CCCCn1nc(C(=O)N[C@H](C(=O)OC)C(C)(C)C)c2ccccc21 [MDMB-4en-PINACA]	KV7.1/KCNE1 (Homo sapiens, UniProt P51787)	0.57
CC(C)(C)[C@H](NC(=O)c1n[nH]c2ccc(Br)cc12)C(N)=O [ADB-5'Br-INACA]	KV7.1/KCNE1 (Homo sapiens, UniProt P51787)	1.04
COC(=O)C(NC(=O)c1nn(CC2CCCCC2)c2ccccc12)C(C)(C)C (centres unmarked) [MDMB-[…]]	KV7.1/KCNE1 (Homo sapiens, UniProt P51787)	0.52
C=CCCCN1C(=O)/C(=N\NC(=O)c2ccccc2)c2ccccc21 [BZO-4en-POXIZID]	KV7.1/KCNE1 (Homo sapiens, UniProt P51787)	0.79
